System: nutsedge, yellow
ASSAY_TEXT: Test C pre-/postemergence herbicide test
Format: in vivo, Cyperus esculentus
COND: Postemergence; 125 g ai/ha; scale 0 to 100 (0 no effect, 100 complete control)
Description: […]
REPORTED_METRIC: Plant response rating, Nutsedge, Yellow

COMPOUND: O=C1NCC(c2ccc(F)c(F)c2)C1C(=O)Nc1cccc(F)c1F (racemic)
Plant response rating, Nutsedge, Yellow: 0

COMPOUND: O=C1NC[C@H](c2cccc(C(F)(F)F)c2)[C@H]1C(=O)Nc1cccc(F)c1F
Plant response rating, Nutsedge, Yellow: 0

[Q] Recorded Plant response rating, Nutsedge, Yellow of O=C1NCC(c2ccc(F)cc2)C1C(=O)Nc1ccc(F)c(F)c1F (racemic) , please.
[A] 0

----------
Each entry below carries its reported Plant response rating, Sedge, Umbrella.
System: sedge, umbrella
ASSAY_TEXT: Test C flooded paddy test
Type: in vivo, Cyperus difformis
COND: Flood, 125 g ai/ha; scale of 0 to 100 where 0 is no effect and 100 is complete control; 13 to 15 days
Answer field: number only, no words.

Worked cases, answers included:
COMPOUND: O=C1NCC(Br)(c2ccccc2)C1C(=O)Nc1ccccc1F (stereo not drawn) [Compound 92]
TARGET_SYSTEM: sedge, umbrella
NUMBER: 0
--
COMPOUND: O=C1NCC(c2cccc(OC(F)F)c2)C1C(=O)Nc1ccccc1F (stereo not drawn) [Compound 323]
TARGET_SYSTEM: sedge, umbrella
NUMBER: 0

[Q] What value of Plant response rating, Sedge, Umbrella has been reported for the following compound? O=C1NCC(c2cccc(C(F)(F)F)c2)C1C(=O)Nc1nnc(C(F)(F)F)s1 (racemic) [Compound 112]
[A] 0

----------
Parameter: Plant response rating, Ducksalad. Scope: all listed entries.
System: ducksalad
ASSAY_TEXT: Test B flooded paddy test
Format: in vivo, Heteranthera limosa
COND: 500 g ai/ha, Flood; scale of 0 to 100 where 0 is no effect and 100 is complete control
Respond with the number and no other words.

Here is how some molecules turned out for Plant response rating, Ducksalad.
MOLECULE: CSc1cccc(C2CNC(=O)C2C(=O)Nc2ccc(F)c(F)c2F)c1 (stereo not drawn) [Compound 290]
Plant response rating, Ducksalad: 75
//
MOLECULE: O=C1NCC(c2cccc(OC(F)F)c2)C1C(=O)Nc1ccccc1F (stereo not drawn) [Compound 323]
Plant response rating, Ducksalad: 100

[Q] Fill in the blank: the reported Plant response rating, Ducksalad of O=C1NCC(c2cccc(C(F)(F)F)c2)C1C(=O)Nc1cc(F)ccc1F (stereo not drawn) [Compound 314] is ____.
[A] 40

[Q] Now consider CC(C)c1cccc(C2CNC(=O)C2C(=O)Nc2ccccc2F)c1 (stereo not drawn) [Compound 318] .
[A] 100

[Q] Then what about the molecule Cc1ccc(C2CNC(=O)C2C(=O)Nc2ccc(F)cc2F)cc1 (racemic) [Compound 150] ?
[A] 100

[Q] Item: CS(=O)(=O)c1ccccc1NC(=O)C1C(=O)NCC1c1cccc(C(F)(F)F)c1 (racemic) [Compound 160]
[A] 100

[Q] Try O=C1NCC(c2cccc(-n3ccc(C(F)(F)F)n3)c2)C1C(=O)Nc1cccc(F)c1F (stereo not drawn) [Compound 326] next.
[A] 0

[Q] Field entry: CSc1cccc(C2CNC(=O)C2C(=O)Nc2ccccc2Cl)c1 (stereo not drawn) [Compound 291]
[A] 0

[Q] Moving on to the next molecule: CSc1cccc(C2CNC(=O)C2C(=O)Nc2ccccc2F)c1 (stereo not drawn) [Compound 287]
[A] 75

----------
Tested on: foxtail, giant
ASSAY_TEXT: Test C pre-/postemergence herbicide test
Assay type: in vivo, Setaria faberii
COND: Preemergence, 250 g ai/ha
REPORTED_METRIC: Plant response rating (scale of 0 to 100), Foxtail, Giant
Field format: numeric only.

MOLECULE: O=C1NCC(c2cc(F)cc(F)c2)C1C(=O)Nc1ccccc1Cl (racemic)
TARGET_SYSTEM: foxtail, giant
NUMBER: 95

MOLECULE: CC(C)c1cccc(C2CNC(=O)C2C(=O)Nc2cccc(F)c2F)c1 (stereo not shown)
TARGET_SYSTEM: foxtail, giant
NUMBER: 95

MOLECULE: O=C1NCC(c2ccc(C(F)(F)F)cc2)C1C(=O)Nc1ccccc1F (stereo not shown)
TARGET_SYSTEM: foxtail, giant
NUMBER: 98

The record that follows has no Plant response rating (scale of 0 to 100), Foxtail, Giant shown yet.
[Q] Need Plant response rating (scale of 0 to 100), Foxtail, Giant, item O=C1NCC(c2ccc(C(F)(F)F)cc2)C1C(=O)Nc1cccc(F)c1F (racemic)
[A] 98

----------
Tested on: giant foxtail
ASSAY_TEXT: Test A pre-/postemergence herbicide test
Assay type: in vivo, Setaria faberii
COND: Postemergence, 500 g ai/ha; 0 to 100 scale (0 no effect, 100 complete control)
REPORTED_METRIC: Plant response rating, Foxtail, Giant
Please respond with just the number, no unit label.

MOLECULE: O=C1NCC(c2cccc(Cl)c2)C1C(=O)Nc1ccccc1F (racemic)
Plant response rating, Foxtail, Giant: 80
--
MOLECULE: O=C1NCC(c2ccc(Cl)cc2Cl)C1C(=O)Nc1ccccc1F (racemic)
Plant response rating, Foxtail, Giant: 20
--
MOLECULE: O=C1NCC(c2ccc(F)c(F)c2)C1C(=O)Nc1cccc[n+]1[O-] (stereo not shown)
Plant response rating, Foxtail, Giant: 0
--
MOLECULE: O=C1NCC(c2ccc(Cl)c(Cl)c2)C1C(=O)Nc1ccccc1Cl (racemic)
Plant response rating, Foxtail, Giant: 70
--
MOLECULE: CCN1CC(c2ccc(C(F)(F)F)cc2)C(C(=O)Nc2ccccc2F)C1=O (stereo not shown)
Plant response rating, Foxtail, Giant: 90
--
MOLECULE: CC(C)N1CC(c2ccc(F)cc2)C(C(=O)Nc2cccc(F)c2F)C1=O (stereo not shown)
Plant response rating, Foxtail, Giant: 0

# input for lookup
[Q] // lookup Plant response rating, Foxtail, Giant for Cc1cccc(C2CN(C(=O)OC(C)(C)C)C(=O)C2C(=O)Nc2ccccc2F)c1 (stereo not shown)
[A] 20

----------
Documented Wheat plant response rating (0 to 100 scale, 0 is no effect, 100 is complete control) across a set of molecules
Test system: wheat
ASSAY_TEXT: Test A pre-/postemergence herbicide test
Type: in vivo, Triticum aestivum
COND: Postemergence, 500 g ai/ha
The response must contain the number and no unit.

[Q] Query (molecule): "O=C1NC[C@H](c2cccc(C(F)(F)F)c2)[C@H]1C(=O)Nc1ccccc1F" ; field requested: Wheat plant response rating (0 to 100 scale, 0 is no effect, 100 is complete control)
[A] 80

----------
Entries and their measured Plant response rating, Blackgrass follow.
Tested on: blackgrass
ASSAY_TEXT: Test C pre-/postemergence herbicide test
Format: in vivo, Alopecurus myosuroides
COND: Postemergence; 125 g ai/ha; scale 0 to 100 (0 no effect, 100 complete control)
Please reply with the value in numeric form only.

MOLECULE: O=C1NCC(c2ccc(C(F)(F)F)cc2)C1C(=O)Nc1cccc(F)c1F (racemic) [Compound 202]
NUMBER: 5

MOLECULE: O=C1NCC(c2ccc(F)c(F)c2)C1C(=O)Nc1ccc(F)c(F)c1F (stereo not drawn) [Compound 346]
NUMBER: 0

[Q] Plant response rating, Blackgrass lookup needed for O=C1NCC(c2ccc(F)c(F)c2)C1C(=O)Nc1cccc(F)c1F (racemic) [Compound 101] , thanks.
[A] 10

----------
System: rice
ASSAY_TEXT: Test B flooded paddy test
Type: in vivo, Oryza sativa
COND: 500 g ai/ha, Flood; scale of 0 to 100 where 0 is no effect and 100 is complete control
Here, each record is paired with measured Plant response rating, Rice data.
Give only the figure.

Known Plant response rating, Rice results, listed for orientation:
COMPOUND: O=C1NCC(c2cccc(Br)c2)C1C(=O)Nc1ccccc1Cl (stereo not shown)
REPORTED_METRIC: Plant response rating, Rice
NUMBER: 0
//
COMPOUND: O=C1NCC(c2ccc(Cl)c(Cl)c2)C1C(=O)Nc1ccccc1Cl (racemic)
REPORTED_METRIC: Plant response rating, Rice
NUMBER: 0
//
COMPOUND: O=C1NCC(c2ccc(C(F)(F)F)cc2)C1C(=O)Nc1ccccc1F (stereo not shown)
REPORTED_METRIC: Plant response rating, Rice
NUMBER: 0

Now turn to the next compound.
[Q] // fetch rice Plant response rating, Rice for O=C1NCC(c2cccc(OC(F)F)c2)C1C(=O)Nc1cccc(F)c1F (stereo not shown)
[A] 0

----------
Tested on: wheat (winter wheat)
ASSAY_TEXT: Test C pre-/postemergence herbicide test
Assay type: in vivo, Triticum aestivum
COND: Preemergence, 62 g ai/ha; scale 0 to 100
Here the recorded Plant response rating, Wheat is given for each entry.
Write the number on its own, no unit after it.

Consider the reported Plant response rating, Wheat for these molecules:
MOLECULE: O=C1NCC(c2ccc(Cl)c(F)c2)C1C(=O)Nc1cccc(F)c1F (stereo not shown)
TARGET_SYSTEM: wheat (winter wheat)
NUMBER: 0
--
MOLECULE: O=C1NCC(c2cc(F)c(F)c(F)c2)C1C(=O)Nc1cccc(F)c1F (stereo not shown)
TARGET_SYSTEM: wheat (winter wheat)
NUMBER: 20
--
MOLECULE: O=C1NCC(c2ccc(F)c(F)c2)C1C(=O)Nc1cccc(F)c1F (racemic)
TARGET_SYSTEM: wheat (winter wheat)
NUMBER: 20

Shift focus to the following entry.
[Q] What does the record list as Plant response rating, Wheat for O=C1NCCC1C(=O)N(c1ccc(F)c(F)c1)c1ccccc1F (stereo not shown) ?
[A] 0
